From: patent US20210079087A1

Biological target: T1, human IL-17A (human, UniProt Q16552 24-155)
T1 construct: The immunogen was IL-17A protein, R&D Systems Cat #3012; also called Interleukin-17A; Hu IL-17
T1 sequence (Q16552 24-155 limits assumed): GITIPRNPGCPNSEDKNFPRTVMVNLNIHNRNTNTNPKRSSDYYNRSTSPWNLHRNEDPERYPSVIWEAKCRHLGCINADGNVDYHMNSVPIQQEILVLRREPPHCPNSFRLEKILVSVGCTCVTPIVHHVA
Test: SPR, Biacore 8k; antibody amine-coupled to the chip, IL-17A as analyte
pKd: −log10 of the molar value.
value-kind: pKd

REMD 155.2 (antibody, human IgG4 S228P, kappa, V domains shown, Humanized antibody derived from 23A4D8; also called IgG 4 (H1/L4); H1 + L4) VH: QVQLVQSGAEVKKPGASVKVSCKASGFTFTDYYMNWVRQAPGQGLEWMGDINPKNGGTIFNQNFRGRVTMTRDTSISTAYMELSRLRSDDTAVYYCARSILTGPFYFDYWGQGTLVTVSS VL: DIVLTQSPDSLAVSLGERATINCKASQSVSFAGTGLMHWYQQKPGQQPKLLIYRASNLEAGVPDRFSGSGSGTDFTLTISSVQAEDVAVYYCQQTMEYPTFGGGTKLEIKR = ≥ 11.46
